# subject of test: human Cot catalytic domain (30-397 amino acids) (Homo sapiens)
# Construct: Purified recombinant human Cot catalytic domain (30-397 amino acids) was purchased from Cama Biosciences; purchased Cama Biosciences (so in the source)
# Sequence (P41279 30-397): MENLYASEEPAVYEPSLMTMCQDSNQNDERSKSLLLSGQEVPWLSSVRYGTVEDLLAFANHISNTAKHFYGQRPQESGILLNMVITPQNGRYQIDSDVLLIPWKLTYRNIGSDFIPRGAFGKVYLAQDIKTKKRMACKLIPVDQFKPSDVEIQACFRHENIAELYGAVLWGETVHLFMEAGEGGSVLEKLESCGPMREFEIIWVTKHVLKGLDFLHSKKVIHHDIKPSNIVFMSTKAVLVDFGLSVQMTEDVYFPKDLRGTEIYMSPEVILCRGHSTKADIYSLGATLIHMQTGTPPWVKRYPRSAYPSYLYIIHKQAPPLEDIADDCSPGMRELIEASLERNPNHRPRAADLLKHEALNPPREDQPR
# assay: High Throughput Cot Biochemical Assay (KinEASE TR-FRET)
# condition: Cot biochemical HTRF (KinEASE TR-FRET) assay; read-out: IC50 HTRF
Record form. Attribute: IC50. Fill in for each entry.
Write the answer as a number in nM, unit excluded.

Input line: Given the entry Cc1ccc(Nc2c(C#N)cnc3c(Cl)cc(N[C@@H](c4ccc(Cl)cc4)c4cn(C5CCN(C(C)(C)C)CC5)nn4)cc23)cc1 , report its measured IC50.
Output line: 315

Input line: Request the reported IC50 associated with N#Cc1cnc2c(Cl)cc(N[C@@H](c3ccc(Cl)cc3)c3c[nH]nn3)cc2c1Nc1ccc(F)c(F)c1F
Output line: 166

Input line: Need IC50 of CCN1CCC(n2cc(C(Nc3cc(Cl)c4ncc(C#N)c(Nc5ccc(F)c(Cl)c5)c4c3)c3cccc(F)c3)nn2)CC1 (centres unmarked) , thanks.
Output line: 5

Input line: Data request, read-out IC50, for N#Cc1cnc2c(Cl)cc(N[C@@H](c3ccc(F)cc3)c3c[nH]nn3)cc2c1NCC(F)(F)F
Output line: 2700

Input line: Look up IC50 for this compound: CC(C)(C)N1CCC(n2cc([C@@H](Nc3cc(Cl)c4ncc(C#N)c(Nc5ccccc5F)c4c3)c3ccc(Cl)cc3)nn2)CC1
Output line: 83

Input line: What measured IC50 goes with CC(C)(C)N1CCC(n2cc([C@@H](Nc3cc(Cl)c4ncc(C#N)c(Nc5cnc(Cl)c(F)c5)c4c3)c3ccccc3)nn2)CC1 ?
Output line: 41

Input line: What value of IC50 has been reported for the following compound? CC(C)(C)N1CCC(n2cc([C@@H](Nc3cc(Cl)c4ncc(C#N)c(Nc5ccc(F)c(Cl)c5)c4c3)c3cccc(N4CCC4=O)c3)nn2)CC1
Output line: 5

Input line: I'd like to know its IC50. The compound in question is CC(C)(C)N1CCC(n2cc([C@@H](Nc3cc(Cl)c4ncc(C#N)c(Nc5cc(F)cc(Cl)c5)c4c3)c3ccc(Cl)cc3)nn2)CC1
Output line: 85
